Values were extracted from the SangsterLogP compilation.

Experimental endpoint: logP

These recorded examples may help you get a feel for the data.
>>> meas_value("CC/C=C\\C/C=C\\C/C=C\\CCCCCCCC(=O)O")
6.46
>>> meas_value("CCCCCCCCCCCCCC(=O)O")
6.11
>>> meas_value("CCCCC/C=C\\C/C=C\\C/C=C\\C/C=C\\CCCC(=O)O")
6.98
>>> meas_value("CCCCC/C=C\\C/C=C\\CCCCCCCC(=O)O")
7.05
>>> meas_value("CCCCCCCCCCCCCCCCCC(=O)O")
8.23
>>> meas_value("CCCCCCCCCCCCCCCCCCCC(=O)O")
9.29
>>> meas_value("CCCCCCCC/C=C\\CCCCCCCC(=O)O")
7.64
>>> meas_value("CCCCCCC/C=C\\CCCCCCC(=O)O")
6.58

(1) CCCCCCCCCCCCCCCC(=O)O
(2) CCCCCC(=O)O
(3) CC(C)OC(=O)c1ccccc1
// query Provide the items ranked by increasing logP. Enter labels, ranked according to the request.
// result 2, 3, 1
(2: 1.87, 3: 3.09, 1: 7.17)
